Values were extracted from patent US12503475B2.

Target: human orexin type 2 receptor (hOX2R) (Homo sapiens, UniProt O43614)
Construct: expressed in transfected cells
Sequence (O43614 whole entry): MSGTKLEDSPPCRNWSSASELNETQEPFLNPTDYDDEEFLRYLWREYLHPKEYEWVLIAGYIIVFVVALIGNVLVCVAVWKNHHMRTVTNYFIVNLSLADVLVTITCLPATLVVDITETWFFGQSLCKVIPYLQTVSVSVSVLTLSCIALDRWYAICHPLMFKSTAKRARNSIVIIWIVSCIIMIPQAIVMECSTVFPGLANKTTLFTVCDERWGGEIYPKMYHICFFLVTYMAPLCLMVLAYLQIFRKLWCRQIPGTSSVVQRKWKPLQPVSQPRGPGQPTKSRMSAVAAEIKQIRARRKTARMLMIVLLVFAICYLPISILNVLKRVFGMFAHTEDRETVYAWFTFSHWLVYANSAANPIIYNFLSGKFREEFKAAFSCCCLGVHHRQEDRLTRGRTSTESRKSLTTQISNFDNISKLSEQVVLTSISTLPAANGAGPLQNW
Experiment: Measurement of orexin type 2 receptor agonist activity (FLIPR calcium fluorescence)
Assay type: cell-based
Conditions: CHO, CHO cells expressing hOX2R, FLIPR calcium fluorescence; read-out: hOx2 Emax (%)
experimental.readout: Emax

* CCNC(=O)N1CC2(CC2)[C@H](NS(=O)(=O)N(C)C)[C@@H]1Cc1cccc(-c2ccccc2)c1F [Compound 121] | 90 to 100%
* O=C([C@H](O)CF)N1CC2(CC2)[C@H](NS(=O)(=O)CF)[C@@H]1Cc1cc(F)cc(-c2ccccc2)c1F [Compound 190] | 90 to 100%
* CC(C)(F)C(=O)N1CC2(CC2)C(NS(C)(=O)=O)C1Cc1cccc(-c2ccccc2)c1 (racemic) [Compound 13] | 80 to 90%
* CC(F)(F)C(=O)N1CC2(CC2)[C@H](NS(C)(=O)=O)[C@@H]1Cc1cccc(-c2cccc(F)c2)c1F [Compound 294] | 80 to 90%
* COC[C@@H](O)C(=O)N1CC2(CC2)[C@H](NS(C)(=O)=O)[C@@H]1Cc1cccc(-c2ccccc2)c1 [Compound 63] | 80 to 90%
* N#CC1(CNC(=O)N2CC3(CC3)[C@H](NS(=O)(=O)CF)[C@@H]2Cc2cccc(-c3ccccc3)c2F)CC1 [Compound 186] | 90 to 100%
* CS(=O)(=O)N[C@H]1[C@@H](Cc2cccc(-c3ccccc3)c2F)N(C(=O)[C@@H]2CCO2)CC12CC2 [Compound 19] | 90 to 100%
* COC1CN(C(=O)N2CC3(CC3)C(NS(C)(=O)=O)C2Cc2cccc(-c3ccccc3)c2F)C1 (racemic) [Compound 46] | 90 to 100%
* COCCOCCS(=O)(=O)N[C@@H]1[C@H](Cc2cccc(-c3ccccc3)c2)N(C(=O)[C@H]2CCO2)CC12CC2 [Compound 74] | 90 to 100%
* O=C(NCC1(F)CC1)N1CC2(CC2)[C@H](NS(=O)(=O)C(F)F)[C@@H]1Cc1cc(F)cc(-c2cc(F)cc(F)c2)c1F [Compound 416] | 90 to 100%
* CC(C)C(=O)N1CC2(CC2)[C@H](NS(C)(=O)=O)[C@@H]1Cc1cccc(-c2ccccc2F)c1 (racemic) [Compound 297] | 90 to 100%
* O=C(NCCF)N1CC2(CC2)[C@H](NS(=O)(=O)C(F)F)[C@@H]1Cc1cccc(-c2ccccc2)c1F [Compound 207] | 90 to 100%
* CO[C@@H](C)CN(C)C(=O)N1CC2(CC2)[C@H](NS(C)(=O)=O)[C@@H]1Cc1cccc(-c2ccccc2)c1F [Compound 316] | 90 to 100%
* CC(C)S(=O)(=O)N[C@@H]1[C@H](Cc2cccc(-c3ccccc3)c2)N(C(=O)[C@H]2CCO2)CC12CC2 [Compound 114] | 80 to 90%
* [2H]c1c([2H])c([2H])c(-c2cccc(C[C@H]3[C@@H](NS(=O)(=O)C(F)F)C4(CC4)CN3C(=O)[C@H]3CCO3)c2F)c([2H])c1[2H] [Compound 173] | 90 to 100%
* COC[C@H](F)C(=O)N1CC2(CC2)[C@H](NS(=O)(=O)CF)[C@@H]1Cc1cccc(-c2ccccc2)c1F [Compound 224] | 90 to 100%
* CC(C)(O)C(=O)N1CC2(CC2)[C@H](NS(=O)(=O)C2CC2)[C@@H]1Cc1cccc(-c2cc(F)cc(F)c2)c1F [Compound 230] | 90 to 100%
* CS(=O)(=O)NC1C(Cc2cccc(-c3ccccc3)c2)N(C(=O)C23CC2C3)CC12CC2 (racemic) [Compound 66] | 90 to 100%
* O=C([C@H]1C[C@@H](F)C1)N1CC2(CC2)[C@H](NS(=O)(=O)C(F)F)[C@@H]1Cc1cccc(-c2ccccc2)c1F [Compound 201] | 90 to 100%
* CCNC(=O)N1CC2(CC2)C(NS(=O)(=O)CC)C1Cc1cccc(-c2ccccc2)c1F (racemic) [Compound 52] | 90 to 100%
* CS(=O)(=O)N[C@@H]1[C@H](Cc2cccc(-c3ccccc3)c2F)N(C(=O)[C@H]2CCO2)CC12CC2 [Compound 21] | 90 to 100%
* O=C(NCC(F)F)N1CC2(CC2)[C@H](NS(=O)(=O)C(F)F)[C@@H]1Cc1cc(F)cc(-c2cc(F)cc(F)c2)c1F [Compound 387] | 90 to 100%
* N#C[C@]1(C(=O)N2CC3(CC3)[C@H](NS(=O)(=O)C(F)F)[C@@H]2Cc2cccc(-c3ccccc3)c2F)CCO1 [Compound 408] | 90 to 100%
* CCCNC(=O)N1CC2(CC2)[C@H](NS(C)(=O)=O)[C@@H]1Cc1cccc(-c2ccccc2)c1F [Compound 111] | 90 to 100%
* N#C[C@@]1(C(=O)N2CC3(CC3)[C@H](NS(=O)(=O)CF)[C@@H]2Cc2cccc(-c3ccccc3)c2F)CCO1 (single isomer, unassigned) [Compound 225] | 90 to 100%
* CC(C)(O)C(=O)N1CC2(CC2)[C@H](NS(C)(=O)=O)[C@@H]1Cc1cccc(-c2cc(F)cc(F)c2)c1F [Compound 34] | 90 to 100%
